Just for reference, paper PMC8233901 is where these values come from.

Test system: tobacco leaves
Test: Effect of peptide infiltration on tobacco leaves (lesion size)
Type: in vivo
Conditions: D-amino acid lipopeptides; 150 µM, 100 µL infiltrated into tobacco leaves, lesion diameter, 48 h, at least three leaves; ± confidence interval
Measured Size of the lesion (mm) 150 µM, listed per entry for reference.
Result type: Size of the lesion (mm) 150 µM

>  <Compound>
CCCCCCCCCCCC(=O)NCCCC[C@@H](NC(=O)[C@H](CC(C)C)NC(=O)[C@H](CCCCN)NC(=O)[C@H](CCCCN)NC(C)=O)C(=O)N[C@@H](CCCCN)C(=O)N[C@@H](CCCCN)C(=O)N[C@H](C(=O)N[C@@H](CC(C)C)C(=O)N[C@@H](CCCCN)C(=O)N[C@@H](Cc1ccc(O)cc1)C(=O)N[C@@H](CC(C)C)C(N)=O)[C@@H](C)CC [BP488, Ac-KKLk(COC11H23)KKILKYL-NH2]

>  <Measured on>
tobacco leaves

>  <Result type>
Size of the lesion (mm) 150 µM

>  <Unit string>
mm

>  <Experimental value>
5

$$$$
>  <Compound>
CCCCCCCCCCCC(=O)NCCCC[C@H](NC(=O)[C@H](CC(C)C)NC(=O)[C@@H](NC(=O)[C@H](CCCCN)NC(=O)[C@H](CCCCN)NC(=O)[C@@H](Cc1ccccc1)NC(=O)[C@H](CC(C)C)NC(=O)[C@H](CCCCN)NC(=O)[C@H](CCCCN)NC(C)=O)[C@@H](C)CC)C(=O)N[C@@H](Cc1ccc(O)cc1)C(=O)N[C@@H](CC(C)C)C(N)=O [BP497, Ac-KKLfKKILK(COC11H23)YL-NH2]

>  <Measured on>
tobacco leaves

>  <Result type>
Size of the lesion (mm) 150 µM

>  <Unit string>
mm

>  <Experimental value>
18

$$$$
>  <Compound>
CCCC(=O)NCCCC[C@H](NC(=O)[C@@H](Cc1ccccc1)NC(=O)[C@H](CC(C)C)NC(=O)[C@H](CCCCN)NC(=O)[C@H](CCCCN)NC(C)=O)C(=O)N[C@@H](CCCCN)C(=O)N[C@H](C(=O)N[C@@H](CC(C)C)C(=O)N[C@@H](CCCCN)C(=O)N[C@@H](Cc1ccc(O)cc1)C(=O)N[C@@H](CC(C)C)C(N)=O)[C@@H](C)CC [BP498, Ac-KKLfK(COC3H7)KILKYL-NH2]

>  <Measured on>
tobacco leaves

>  <Result type>
Size of the lesion (mm) 150 µM

>  <Unit string>
mm

>  <Experimental value>
6

$$$$

====

System: tobacco leaves
Assay: Effect of peptide infiltration on tobacco leaves (lesion size)
Format: in vivo
Settings: D-amino acid lipopeptides; 50 µM, 100 µL infiltrated into mesophyll of tobacco leaves, lesion diameter, 48 h, at least three leaves; ± confidence interval
Where a SMILES comes first, the peptide text is derived from it. [ ]: non-standard residue; d: D form. The star is where a group is joined. Lauroyl = CCCCCCCCCCCC(=O)*; Butyryl = CCCC(=O)*

>  <Compound>
CCCC(=O)NCCCC[C@H](NC(=O)[C@@H](Cc1ccccc1)NC(=O)[C@H](CC(C)C)NC(=O)[C@H](CCCCN)NC(=O)[C@H](CCCCN)NC(C)=O)C(=O)N[C@@H](CCCCN)C(=O)N[C@H](C(=O)N[C@@H](CC(C)C)C(=O)N[C@@H](CCCCN)C(=O)N[C@@H](Cc1ccc(O)cc1)C(=O)N[C@@H](CC(C)C)C(N)=O)[C@@H](C)CC

>  <Unit string>
mm

>  <Size of the lesion (mm) 50 µM>
4

$$$$
>  <Compound>
CCCC(=O)NCCCC[C@H](NC(=O)[C@H](Cc1ccc(O)cc1)NC(=O)[C@H](CCCCN)NC(=O)[C@H](CC(C)C)NC(=O)[C@@H](NC(=O)[C@H](CCCCN)NC(=O)[C@H](CCCCN)NC(=O)[C@@H](Cc1ccccc1)NC(=O)[C@H](CC(C)C)NC(=O)[C@H](CCCCN)NC(=O)[C@H](CCCCN)NC(C)=O)[C@@H](C)CC)C(N)=O [BP496, Ac-KKLfKKILKYK(COC3H7)-NH2] (Ac-KKL[dF]KKILKYK(Butyryl)-NH2)

>  <Unit string>
mm

>  <Size of the lesion (mm) 50 µM>
3

$$$$
>  <Compound>
CCCCCCCCCCCC(=O)NCCCC[C@H](NC(=O)[C@@H](NC(=O)[C@H](CCCCN)NC(=O)[C@H](CCCCN)NC(=O)[C@@H](Cc1ccccc1)NC(=O)[C@H](CC(C)C)NC(=O)[C@H](CCCCN)NC(=O)[C@H](CCCCN)NC(C)=O)[C@@H](C)CC)C(=O)N[C@@H](CCCCN)C(=O)N[C@@H](Cc1ccc(O)cc1)C(=O)N[C@@H](CC(C)C)C(N)=O [BP490, Ac-KKLfKKIK(COC11H23)KYL-NH2] (Ac-KKL[dF]KKIK(Lauroyl)KYL-NH2)

>  <Unit string>
mm

>  <Size of the lesion (mm) 50 µM>
4

$$$$
